Target: UniProtKB P21462
Sequence (P21462 whole entry): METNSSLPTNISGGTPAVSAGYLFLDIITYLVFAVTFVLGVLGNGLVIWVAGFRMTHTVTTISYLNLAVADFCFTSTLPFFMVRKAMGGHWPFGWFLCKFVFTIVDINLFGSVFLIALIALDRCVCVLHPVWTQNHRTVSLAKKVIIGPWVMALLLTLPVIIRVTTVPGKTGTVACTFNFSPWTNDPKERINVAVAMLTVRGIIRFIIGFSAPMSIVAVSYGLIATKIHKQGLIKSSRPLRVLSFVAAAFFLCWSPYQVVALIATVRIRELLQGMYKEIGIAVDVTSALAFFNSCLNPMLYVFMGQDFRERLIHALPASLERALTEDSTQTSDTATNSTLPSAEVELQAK
Assay: FPR1 cyclic adenosine monophosphate (cAMP) assay
Conditions: CHO cells overexpressing human FPR1; forskolin 10 μM; inhibition of cAMP production; HTRF; read-out: hFPR1 cAMP2 EC50
Procedure: FPR2 and FPR1 Cyclic Adenosine Monophosphate (cAMP) Assays. […] The level of intracellular cAMP was determined using the HTRF HiRange cAMP assay reagent kit (Cisbio) according to manufacturer's instruction. […] After a 1-h room temperature incubation, time-resolved fluorescence intensity was measured using the Envision (Perkin-Elmer) at 400 nm excitation and dual emission at 590 nm and 665 nm. […]
Each item that follows carries a reported pEC50.
In plain terms, pEC50 is the concentration in mol/L turned into minus its base-10 logarithm.

Here are 2 molecules together with their reported answers.
- mol: "COc1cc(F)c(-n2cc(Cc3nnc(C)o3)nc2NC(=O)c2ccc(OC(F)F)cc2)c(F)c1"
  pEC50: 6.52
- mol: "COc1ccc(-n2cc(C3CCCCC3)nc2NC(=O)c2ccc(OC(F)F)cc2)cc1"
  pEC50: 6.18

I have this molecule here, COc1ccc(-n2cc(-c3ccccc3F)nc2NC(=O)c2ccc(OC(F)F)cc2)cc1 , and I need its recorded pEC50.
7.33

I have this molecule here, COc1cc(F)c(-n2c(NC(=O)c3ccc(OC(F)F)cc3)nc(-c3ccccc3)c2C)c(F)c1 , and I need its recorded pEC50.
6.64

====

Target: human FPR2 (Homo sapiens, UniProt P25090)
Sequence (P25090 1-351): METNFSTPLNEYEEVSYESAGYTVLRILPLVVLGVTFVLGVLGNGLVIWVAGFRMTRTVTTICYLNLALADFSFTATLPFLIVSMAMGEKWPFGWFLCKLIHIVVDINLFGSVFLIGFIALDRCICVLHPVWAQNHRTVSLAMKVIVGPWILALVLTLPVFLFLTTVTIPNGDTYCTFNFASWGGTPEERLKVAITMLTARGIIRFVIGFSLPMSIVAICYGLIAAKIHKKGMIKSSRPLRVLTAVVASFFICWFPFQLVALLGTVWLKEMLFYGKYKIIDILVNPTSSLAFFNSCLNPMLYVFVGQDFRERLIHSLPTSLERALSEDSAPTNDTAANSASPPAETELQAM
Assay: FPR2 cyclic adenosine monophosphate (cAMP) assay
Settings: CHO cells overexpressing human FPR2; forskolin 5 μM; inhibition of cAMP production; HTRF; read-out: hFPR2 cAMP2 EC50
Each item that follows carries a reported pEC50.
In plain terms, pEC50 is the concentration in mol/L turned into minus its base-10 logarithm.

Here are 3 molecules together with their reported answers.
- molecule: "COc1cc(F)c(-n2cc(C3CCN(C(=O)CCC(N)=O)CC3)nc2NC(=O)c2ccc(OC(F)F)cc2)c(F)c1 [Example 67]"
  pEC50: 7.27
- molecule: "COc1cc(F)c(-n2cc(-c3ccc(Cl)cc3)nc2NC(=O)c2ccc(OC(F)F)cc2)c(F)c1 [Example 11]"
  pEC50: 7.62
- molecule: "COc1cc(F)c(-n2cc(-c3ccc(C)cc3)nc2NC(=O)c2ccc(OC(F)F)cc2)c(F)c1 [Example 15]"
  pEC50: 7.64

Let's switch to this molecule now.
I have this molecule here, COc1cc(F)c(-n2cc(-c3ccccc3F)nc2NC(=O)c2ccc(OC(F)F)cc2)c(F)c1 [Example 33] , and I need its recorded pEC50.
7.41
